Hey, just so you know, these numbers are from PubChem BioAssay AID1259343.

The following compounds are listed with their measured inhibition values.
# method: Mycobacterium tuberculosis growth inhibition, primary screen (AID 1259343)
# details: at 10 µM, active compounds read high
About 2,900 (47%) of roughly 6,200 compounds were called active. The set was probably picked from earlier hits. The list shows a part of the results.

Solved entries:
CCCc1cc(N2CCCC2)n2nc3nc(C)cc(C)c3c2n1 ... 22% (inactive)
CCCCc1nc2sc3c(NCCN4CCOCC4)ncnc3c2c2c1COC(C)(C)C2 ... 71.5% (active)
COC(=O)CCc1c(C)nn(-c2nc(C)cc(=O)[nH]2)c1C ... 43.3% (inactive)

input: I'd like to know its inhibition. The compound in question is CC1CC(OCC(O)CN2CCC(CN3C(=O)c4cccc5cccc(c45)C3=O)CC2)CC(C)(C)C1 (stereo unspecified)
output: 90.1% (active)

input: Dear colleague, I am looking for the recorded inhibition of the following compound: Cc1cc(NC(=O)C(C)(C)CCl)n(-c2nc(C)c(C)c(=O)[nH]2)n1
output: 101% (active)

input: State the recorded inhibition for this entry: COc1ccc(CNc2ccc([N+](=O)[O-])cc2)cc1
output: 4.07% (inactive)

input: Name the reported inhibition value associated with the compound Cc1ccc2nc(-c3ccncc3)cc(-c3ccccc3)c2c1
output: 53.7% (active)

input: Request the reported inhibition associated with O=C(Nc1cccc(/C=C/c2ccccn2)c1)C1CCCC1
output: 97.1% (active)

input: Param item = CC(=O)Nc1cc(C)nn1-c1nc(C)c(C)c(=O)[nH]1 ; retrieve measured inhibition.
output: 101% (active)

input: Look at this compound and give its reported inhibition. CON(C)S(=O)(=O)c1cc(C(=O)Nc2cccc(Cl)c2Cl)ccc1Cl
output: 22.1% (inactive)

input: Need inhibition, item CC(C)(C)c1noc(COc2ccc(O)cc2)n1
output: 39.8% (inactive)

input: Query: inhibition; subject: Cn1ncc2c(N3CCC(OCc4cccnc4)CC3)nc(C(C)(C)C)nc21
output: 85.9% (active)

input: Item under review: Brc1ccc(OCc2nnc(-c3cccs3)o2)cc1 . Reported inhibition?
output: 42.8% (inactive)

input: Consider the compound CC1CCC(N(C(=O)Nc2nccs2)C2CC2)CC1 (stereo unspecified) and give its measured inhibition.
output: 53.1% (active)

input: Reported inhibition for COC(=O)C1=C(NC(=O)c2cccs2)CCS1 : what is it?
output: -17.8% (inactive)

input: I am curious: what inhibition value has been reported for COc1ccc(NC(=O)c2sc(=O)n(CCOc3ccc(F)cc3)c2C)cc1OC ?
output: 27.4% (inactive)

input: Param item = COC(=O)CCc1c(C)nn(-c2nc(C)c(C)c(=O)[nH]2)c1C ; retrieve measured inhibition.
output: 101% (active)

input: Report inhibition for CC(C)n1ncc2cc(N)cnc21 please.
output: 83.8% (active)

input: Any idea what its inhibition is? The compound is COc1ccc(NC(=O)c2ccc(-c3ccc(C(C)=O)cc3)o2)cn1
output: -28.8% (inactive)
